Values compiled from the NTF2 design screens of Basanta et al. (2020).

- measurementDescription: protease stability score; higher = more stable; yeast display proteolysis, trypsin and chymotrypsin
measuredMetric: protease stability score
Give the value as a plain number.

// solved cases for protease stability score follow
DEQQEDAEHATELLLRLLETGDWSTFEKLMDPHVRVDIGDKHLHGREMSSHFIKELVERYPNLRISFKDMRVQGEFIHVIGEVNFNGQRFHSEWVVLKVDGRWTINSVRIE
1.28
SEEQHHLYSVFVRLIRNHWTGNERELHELADPNTRHTVGDKTYHGMEHVAWLLTEWVKEARLEIILRDVHVFDGRVESRIEFRLRYGDFKTTHEVRVEVNVVDGRLKEMEIDIN
1.43
DEHEEYMEELVKSIYTLWKTGDEDTLLSLFDPNMRILIDGVDAVGRENFKEEFRRFKEEIRHKDHKIHHIDIQGEKIRTEVLVHGIWDGVDTTLHVEIRIVVINGRVKSIEFHFT
1.74
SEMEEVAVREWEILVKALRTGDERIISELMDPHARVDYNGRQLHGREEVKKFLEEIRIVTHHTEIKDHEYQGNKLIMHGHVDVENEYGDKTERIDTHIHIILRKVNGRWFITEIDIR
2.53
TEEEEEMRELTELWLNILHTGDEDRFRELADPRVRLHINGRHNHGREIFMEFFDRSLKILGADHRTIHRIRFIGDKIDIKGREYINGQETRATLHVIIVNGRIKFEEWRFD
0.989

Ask: Please report the recorded protease stability score for DEHEHLALRMTTRFTDMLRTGDWENMLRYFDPDARIIIDGRKHHGRERMHEIWREIRVTDLRINRERVRVQGDFVINHIDGEEDVEIGDKRISTRSIIILVVHKIDGRWHMKELEINIV .
Result: 0.796

Ask: Please report the recorded protease stability score for SEDEKMIEDASELHIDYFLTGDEESMEKLADPSVKLEQGDKDQHGREQHSKWYKELREELGIKHMRVDDVKFRLINGRLTLLIRGTLHVGDKSWDVHFILISEKIDGKWVIRNMIISYS .
Result: 1.32

Ask: Please report the recorded protease stability score for SEDVERVRHSIIVWLHILLTGDEETISKYADPNARYVQGDKHHHGMEYIAIKIRELRWSVTMEIEHMHVVDGRAHIEGRLILRIHINGKEDVEDHELELHMIKVDGKWILHEIKIK .
Result: 1.59

====

- measurementDescription: protease stability score; higher = more stable; yeast display proteolysis, trypsin and chymotrypsin;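 note: relative to predicted unfolded state with 0 unfolded-like and 1 meaning tenfold more protease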
measuredMetric: protease stability score
Give the value as a plain number.

Ask: Please report the recorded protease stability score for TEHDQVLLQLSQELFHSVLTGDFDLWTKLMDPNVRVHIISEDEELHRVGWETMIRWLRRFLEELRIHSMRIRRVHHVDGVAHEDGELDGIVDGQRVITRVTLHVITINGRWHSVHLERL .
Result: 0.801

Ask: Please report the recorded protease stability score for SEDDHELKEELKIIMKSSLTGDEDTLNRLADPHARIHQGEFNLHGREEFSRLFVELRMHDIRIEDYEVIDGRVEVDIRLNIHYNGKRYIKVTRSVFRKVDGRWLIEEVRYD .
Result: 0.494

Ask: Please report the recorded protease stability score for DEDTELMRHIIERLLRSSKTGDEDSMADLLDPNVRIVNEDERLHGRELASRFMYELRIHHFELTRFKVYDGKIDIDGIHDGEINGVRRRVWVEFISVKVNGKWQIKELRIG .
Result: 1.35

Ask: Please report the recorded protease stability score for NHEEEERHETFRIFLESVRTGDWKNTEKLLDPNARQVWNGKVLHGRESVIEVMRELRVDSLDVKSFDIQGEKAIMHGESEGVFNGKRLNMTLETHLVKVDGKWFLRELVII .
Result: 1.23

Ask: Please report the recorded protease stability score for DDEEEVAERAARIVHHLYLTGNPEELLKYFDPDVRWIFNGKTSIGRENVVEMFDDVHRMFGIDVRTSDINSYDIVDGRIEVDSRLHLHINGRKINHHFRIESIKINGRWWLKRIDID .
Result: 0.933

Ask: Please report the recorded protease stability score for SDKEEEAHRLLELLIHWYRTGDFETWRQLMDPHVRNVVDVNGRELHHHGREEVTDSLRFFWEHLGIKHVHFRHVEVQGDKIKLHGQQRVDGQEHQSDFIFIIVDGRVKFIFIHLR .
Result: 0.649

Ask: Please report the recorded protease stability score for SHEEEDEHRLVIEWLEAVLTGDEDRLTELFDPNMRFVFENHQVHGRERVSKLLVRHMLEWRTRVKIEDMEYFNGRLHIDMELHVDVNGRHVNIKSLLIVEKINGKWFVRSVRVR .
Result: 0.534

Ask: Please report the recorded protease stability score for HEDEHKWERAFRIWIHALITGDEETTNELMDPNTRLNFNGVDFIGREDMIELIRHIRIHREHITHVEIRTFNGVLHVHMHVRRDGNINGQRRNTDVEIHIVIFKVNGRWVLHSTTIVVN .
Result: 2.23

Ask: Please report the recorded protease stability score for SEEEHRVKELARLFVEVLLTGDWKTLLELMDPNTRLRINGKDFIGMEDAVKAWRDYLDEIRHDDIKLTRIENNEDHSHLDGRQHGIYNGQRTDTILNVDIHMVNGKIKEVHIEIE .
Result: 1.01

====

Each entry below lists one item and its recorded protease stability score value.
- measurementDescription: protease stability score; higher = more stable; yeast display proteolysis, trypsin and chymotrypsin;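 note: relative to predicted unfolded state with 0 unfolded-like and 1 meaning tenfold more protease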
Give the value as a plain number.

// solved cases for protease stability score follow
TEEERIRRHAVELWVRSMRTGDEETSVDLADPRTKADINGVEIHGMEIVSKFFREMLEQYDVREFHIHSIDVIGDKVVTDMELILRVGDFENRTHIEFIVHKFDGKWRIEEIRLH
0.934
DELHELVKRYWDRWIESMLTGDFDANHELVDPHARVDIGDKRFHGRELYELHYKRIDHFHIHEINIRHIEVVDGRVHIDVIMHTFEIVNGVKFSHHFRQIIIIEKVDGRWVVRRIIVK
1.01

Ask: Please report the recorded protease stability score for DEEREIIETFFRESLEVIKTGDWKTFDDLLDPRARLNIGDKDYHGRHEIVRQWHKQFKDLGVDHIENKDLRIFDGKIETHFDLEVGDKRIHLEFHATKIDGRWLFHEIRVQ .
Result: 1.97

====

- measurementDescription: protease stability score; higher = more stable; yeast display proteolysis, trypsin and chymotrypsin;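 note: relative to predicted unfolded state with 0 unfolded-like and 1 meaning tenfold more protease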
Classify as follows. Reported protease stability score greater than or equal to 0.8: true (1). Reported protease stability score below: false (0).

Ask: Textbook exercise: given the entry SEEHKQIEEFLTRFYRFKKTGDEKMLSRMADPNYKMDIDGQDVHGREEYEEASRRFDHIHHIKLRQFERQGNKVYLDIEVDGEVNGRQTKHTSTLILLKIDGRWYIEHVHWE , state whether its protease stability score is greater than or equal to 0.8.
Result: false (0)

Ask: Textbook exercise: given the entry DDSEHWARRFIHLLKRSLETGDEHLNKELADPHARIEVNGRELHGREDFSETLVRMGFNHVHITDFDVQGDKIELHIETDVGDKKIQVEFIVEKVNGRWLNRSMHIRIH , state whether its protease stability score is greater than or equal to 0.8.
Result: true (1)

Ask: Textbook exercise: given the entry DHLEEIADKMAKDFIHIFLTGDEHLHNRLADPNVRLHVNGRDSHGRENWSRMLTQILREMRVKDIKITSSEVQGEWSVSRTRMNVDIDGKVEEIETEIIILVVNGKLESSTIVID , state whether its protease stability score is greater than or equal to 0.8.
Result: false (0)

Ask: Textbook exercise: given the entry DEDREFAERVMKLLLHSLITGDFRRIHELADPHMRLHQGDFNIIGWDTIYEIMFRLGFRLDDFRIEHMDVVDGRVFLQGRSDGTINGRRTRTNVNIIIEKIDGRWYLRENEVR , state whether its protease stability score is greater than or equal to 0.8.
Result: true (1)

Ask: Textbook exercise: given the entry SEEEQLVQSAIEITVEALQTGDEHKIREMLDPHVKVRINGQDTHGWEVMEVFMKELGIKHIRVHIEHVNVQGEKVEVKGRVIINFNGRHYEREHWIIIFKIDGRWVNDSIEYI , state whether its protease stability score is greater than or equal to 0.8.
Result: true (1)

Ask: Textbook exercise: given the entry SEEDHLVDLMLKFLIESLKTGDEKTLRKLVDPNDKVVFNGRELHGRRALEYWLERFDHAHRFHIEDFTVQGDYMIVRVKLDGHVDGVRMETTIHLILVKYDGRWFVKMTIFN , state whether its protease stability score is greater than or equal to 0.8.
Result: true (1)

Ask: Textbook exercise: given the entry SEEEEIIESFMKELRESHKTGDPTAIDRLADPNTRLLVNGKQHHGWEHILRFLEDLGANHIELEFRDSHLIGDKMHIHGQLVMHINGQRVTIKTHMILSKINGRWYLEHIELR , state whether its protease stability score is greater than or equal to 0.8.
Result: true (1)

====

- measurementDescription: protease stability score; higher = more stable; yeast display proteolysis, trypsin and chymotrypsin;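 note: relative to predicted unfolded state with 0 unfolded-like and 1 meaning tenfold more protease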
Each entry below lists one item and its recorded protease stability score value.

// solved cases for protease stability score follow
SEDEEVIKKHLKEFIDVLRTGNEEMSSYLADPNARVVDENEFSHGREDMTRIVSQARLHHIHVHDFELQGDKLLLDVHVDGVINGRRRRDKFHFVWLKYNGRWFLHSVHIR
0.652
TEHEHEAEDALEKSIRHFHTGDEDTLKHLMDPNVRNDIDGKHIHGREDVLDIMIRIPNVRSEIDDVRVRHVNGRIEVIVDGILYFNGRTVEVRVILIMQKINGKWYITSLEIRRR
0.628
SEDEEKATEMIEQLSRAILTGDEHTLHKLLDPRTRIVVNGRRIHGRELWLKFFRELRFHSDDMHIHSQEVQGDKAFFDVHWLGTRNINGVKEHSHTKTEVILLKYNGKWIVEELRYE
2.17

Ask: Please report the recorded protease stability score for DEEEEHFRRLLERFLHFWRTGDEDDYHKLADPHARSEVIIGDFRIESHGRHALEIWLRYMGIDHIHLEDSDSQGNKVHVHMHVKVGDKEHHVIIILIVIDGRVHQLTISVRRT .
Result: 1.13

Ask: Please report the recorded protease stability score for DEKRKEMEQLARIIIHLWETGDEEKWREYADPNTRLDVDGRNSHGMHNTLEVLRRRLEELGFDHVEMEIKHITVIGDKAQINGKVHLYWNGKTIDVPSEIIIVIINGRLHSIELRHE .
Result: 1.44

Ask: Please report the recorded protease stability score for SEIHDIARKMMNIVRRLLHTGDEDKWLDLADPDVRIHINGRDFIGRELWVQIYRELGVDHLDLKIERVEIVDGVIILHGTLDIHYGDKTHEIEINIFIRKVNGRWRLKLEHHK .
Result: 1.71

Ask: Please report the recorded protease stability score for DEHKKESKETAEIVMELRKTGDWDEFSRLADPNVKIDVDVNGKRINNIGWESFVEFVLKERDEWRLEDYKIRDIRVIDGVAEIDGEITGVFNGQREKREFRIIVVVVNGRLKSVQLKFK .
Result: 1.29

Ask: Please report the recorded protease stability score for DERTEHSEENVKLFIEALRTGDFKTLLRLVDPHVRVIVIINGKEINNHGWEEFLRWMREEFERYPNLRVKVRHLDIQGDFVRVEGHLEVGDKSHRIHLHLLIINGVVELELYIFR .
Result: 1.92

Ask: Please report the recorded protease stability score for SEEDEDVKRILELWLRSEETGDEHLSLELADPNTRKHQGDKEFHGMSKLVQLLAELYRRADHSHFIEKRVEVFENHVRIVGHFVLIVGEFRIVVDILILARKIDGRWILTRVNWR .
Result: 1.51

Ask: Please report the recorded protease stability score for SDLERDAREAFEHYVNLMRTGNEHIVEHLIDPDVKIEIGDKQVVGREEVLKLFHHLVKHLRWHDTKLHHVHYQGDKMLLDMRLDGTIDGRRLDTRVIWFILKIDGVWFIKYQHYH .
Result: 1.81
